Assay: folding stability dG unfold from trypsin proteolysis; higher = more stable
# cutoff 1 kcal/mol applies to folding stability dG unfold; >= gives Met, < gives Not met

> print(dat)
                              sequence.code  category
1  SAGGSAMVTPEERVEAALAYIRGKYGFPLSATPAQLREAGLPVRVELTVTDADGRPLATVTLEIPGSAGGSA [r15_391_TrMRF]       Met
2  SAGGSPHVSTDAADPELAARLLREAFGTDEVPLVRRDPTTGALLAFLPATGRLVWTDRTTVRVEPSSAGGSA [r2_205_TrMRF]   Not met
3  SAGGSAGGSKNVKTVTIPFNNMSPSKFIEQIKNHPVDAIEIEMPDPWYRRFLNWLKDEGIKVISAGGSAGGS [r12_610_TrROS]       Met
4  SMSYTVTVEYPDTGKTTTTPIPPDALEVSVSLSGPSTIRITITTDVNGATTTTTSTVTLPPPALPPSTLLSA [r9_1067_JUSTAS]       Met
5  SAGGSAGGTIIDRIKELFGPGMKINIQEHPSEPYYRIRIKNPGFGQKREIHVPPDSIEDILDQISAGGSAGG [r6_612_TrROS]   Not met
6  SAGSPEELAEKIAEELAAEYEKKNPDKKPVKIEVKEVVVDPEGGSVTIKIKFYDPDGKPLAEPVITVESAGG [r19_53_JUSTAS]       Met
7  SAGGSSKTEIYYNPKKPYFLIKVTYKNGKTKEYPIKGKGMSLEELKKKAEEIVKELNSEEFKEVVFNPSAGG [r13_267_TrMRF]       Met

Source of measurements: the supplement of paper PMC12764529
